# assaySystem: CAT-1 (carnitine acyltransferase 1) (Rattus norvegicus)
# Construct: This preparation is used as the isolated mitochondrial preparation; from tissue; host or cells: rat heart (atria removed), isolated mitochondria
# Sequence (Q63704 1-772): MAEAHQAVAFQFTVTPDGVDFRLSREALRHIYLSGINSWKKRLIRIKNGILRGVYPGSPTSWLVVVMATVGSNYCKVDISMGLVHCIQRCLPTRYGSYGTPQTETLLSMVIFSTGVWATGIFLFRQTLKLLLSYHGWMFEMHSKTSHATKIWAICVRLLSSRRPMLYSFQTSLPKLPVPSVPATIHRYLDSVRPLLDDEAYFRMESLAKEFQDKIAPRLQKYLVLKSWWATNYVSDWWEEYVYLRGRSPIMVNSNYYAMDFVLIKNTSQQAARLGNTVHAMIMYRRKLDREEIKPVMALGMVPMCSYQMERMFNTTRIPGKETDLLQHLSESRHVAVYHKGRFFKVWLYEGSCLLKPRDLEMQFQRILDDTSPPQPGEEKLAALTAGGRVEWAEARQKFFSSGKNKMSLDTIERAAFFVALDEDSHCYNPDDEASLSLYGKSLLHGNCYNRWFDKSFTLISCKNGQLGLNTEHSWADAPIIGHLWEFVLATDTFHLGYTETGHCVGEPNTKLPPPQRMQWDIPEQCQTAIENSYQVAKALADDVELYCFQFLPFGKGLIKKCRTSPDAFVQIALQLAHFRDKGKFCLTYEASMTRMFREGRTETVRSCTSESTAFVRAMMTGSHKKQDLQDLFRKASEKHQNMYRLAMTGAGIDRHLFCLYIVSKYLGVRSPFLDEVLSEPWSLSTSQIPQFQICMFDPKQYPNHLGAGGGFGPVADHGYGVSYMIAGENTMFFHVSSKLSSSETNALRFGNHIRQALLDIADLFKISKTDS
# protocolDetails: Secondary Screen--Inhibition of CAT-1 in intact cardiac myocytes (hypoxia-induced increase in long-chain acylcarnitines)
# Format: cell-based
# Design: dose or concentration left out as unconfirmed
# condition: isolated rat cardiac myocytes, hypoxia
attributeMeasured: inhibition (%)

molecule O=C(O)C(=O)c1ccc(OCC(=O)N2CCC(c3ccccc3)CC2)cc1 , inhibition observed: 33

# inhibition of O=C(O)C(=O)c1ccc(OCCCn2c(=O)c3ccccc3c3ccccc32)cc1 = 99

CC(C)c1cccc(-c2ccc(F)cc2)c1OCCOc1ccc(C(=O)C(=O)O)cc1 has a reported inhibition of 90

1 = O=C(O)C(=O)c1ccc(OCCCCCCc2cccc(O)c2O)cc1
2 = CCC(C)(C)C(=O)OCc1cccc(C)c1C#CCOc1ccc(C(=O)C(=O)O)cc1
Prompt: Between the entries labelled 1 and 2 , which has a larger inhibition value on record? Respond using the label that marks the chosen record.
Completion: 1

====

# assaySystem: CAT-1 (carnitine acyltransferase 1) (Rattus norvegicus)
# Construct: This preparation is used as the isolated mitochondrial preparation; from tissue; host or cells: rat heart (atria removed), isolated mitochondria
# protocolDetails: Primary Screen--Inhibition of CAT-1 in isolated mitochondria
# Assay type: biochemical
# condition: rat heart mitochondria, reduction of palmitoyl carnitine formation by 50%; read-out: Primary Screen IC50
pIC50: −log10 of the molar value.
attributeMeasured: pIC50

Some molecules with recorded pIC50:
Memo: O=C(O)C(=O)c1ccc(OCCCCSc2ccc3ccccc3c2)cc1 , reported pIC50: 5.46

Field pIC50 (entry O=C(O)C(=O)c1ccc(OCc2ccc3ccccc3c2)cc1 ) reads 6.66

GET /value?item= O=C(O)C(=O)c1ccc(OCCOc2cc3ccccc3cc2OCCOc2ccccc2)cc1 &field=pIC50 returns 6.19

Looking up CC(=O)c1ccc(OCCCOc2ccc(C(=O)C(=O)O)cc2)cc1O , I see its pIC50 listed as 6.14

1 = O=C(O)C(=O)c1ccc(OCCOc2ccnc3ccccc23)cc1
2 = O=C(O)C(=O)c1ccc(OCCOc2ccc3c(c2)CCCC3)cc1
3 = O=C(O)C(=O)c1ccc(OC/C=C/c2ccc3ccccc3c2)cc1
4 = O=C(O)C(=O)c1ccc(OCC#Cc2ccccc2)cc1
5 = COC(=O)C(=O)c1ccc(OCCOc2ccc3cc(OC(C)=O)ccc3c2)cc1
Prompt: Order each entry by recorded pIC50, climbing from the minimum. List the labels according to the requested ordering.
Completion: 5, 1, 4, 2, 3

Taken from patent US5344843A.
